Quick reference for %Inh among some compounds
# Test system: BMPR1B
# Details: concentration: 1 μM, replicates: in singlicate; n = 1;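 also: KINOMEscan kinase panel screen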

Compound	%Inh [%]
NCCC(NC(=O)c1cc(Br)c(-c2ccnc3[nH]ccc23)s1)c1ccccc1.O=C(O)C(F)(F)F.O=C(O)C(F)(F)F (centres unmarked) [GSK1307810]	0
CCn1c(-c2nonc2N)nc2c(-c3ccccc3)ncc(OCCCN)c21.O=C(O)C(F)(F)F.O=C(O)C(F)(F)F [GSK260205]	0
O=C1NC(=O)C(c2ccccc2Cl)=C1Nc1cccc(Cl)c1 [SB-342409]	0
COc1ccc(C)c(Nc2ccnc(Nc3ccc(-c4cnc[nH]4)cc3)n2)c1.Cl [GW784041]	99.9
CNc1nccc(-c2ccc3c(N)n[nH]c3c2)n1 [GSK2206003]	71
CCOc1nccc(-c2c(-c3ccc(F)cc3)ncn2C2CCNCC2)n1 [SB-249175]	20
Fc1cc(Cl)ccc1Nc1ccnc2cc(-c3ccc(CN4CCOCC4)o3)ccc12 [GW560109]	62
Cl.Cl.NCC(NC(=O)c1cc(-c2cccnc2)c(-c2ccnc3[nH]ccc23)s1)c1ccccc1 (centres unmarked) [GSK1323434]	51
Cc1cccc(Nc2nc(NCCN)ncc2C(N)=O)c1 [GSK1292139]	0
COc1cc(Nc2nccc(N3CCC(NS(=O)(=O)c4ccc(NC(C)=O)cc4)CC3)n2)cc(OC)c1OC [GSK1379825]	0
CN(c1ccc(NC(=O)N2CCN(CCCN3CCOCC3)CC2)cc1)c1ccnc(Nc2ccc(CS(C)(=O)=O)cc2)n1.Cl [GW830899]	7
CN(C)c1ncnc2nc[nH]c12 [SKF-31736]	7
Cc1ccc(Nc2ccnc(Nc3ccc(C)c(F)c3)n2)cc1O.Cl [GW582868]	30
c1ccc(Oc2ccc(Nc3ccnc4cc(-c5ccc(CN6CCCCC6)o5)ccc34)cc2)nc1 [GW567143]	0
COc1cccc2c(-c3ccncc3)c(-c3ccc(F)cc3)nn12 [GW468513]	0
Nc1cccc(-c2ccc3c(N)n[nH]c3c2)c1 [GSK2193613]	89
COc1ccc(NC(=O)c2ccoc2)cc1-c1ccc(C(=O)NCC2CC2)cc1 [GW810437]	2
Cc1cccc(Nc2nc(N[C@H]3CCCC[C@H]3N)ncc2C(N)=O)c1.Cl [GSK986310]	0
Nc1ncnc2scc(-c3ccc(NC(=O)Cc4cc(F)ccc4F)cc3)c12.O=C(O)C(F)(F)F [SB-731254-M]	10
COc1cccc(CC(=O)N2CCc3cc(-c4cn(C)c5ncnc(N)c45)ccc32)c1 [GSK2608899]	6
COC(=O)Nc1nc2ccc(Oc3ccc(NC(=O)Nc4cc(C(F)(F)F)ccc4F)cc3)cc2[nH]1.Cl [GW654607]	0
O=C(O)C(F)(F)F.O=c1[nH]ccc2nc(N[C@@H]3CCNC3)nc(Nc3cc(Cl)cc(Cl)c3)c12 [GSK2188764]	0
O=C(Nc1n[nH]c2nc(-c3cccc(O)c3)ccc12)C1CC1 [SB-711805]	86

----------
Item-by-item account of %Inh
# Test system: IKK-beta
# Construct: gene IKBKB
# Details: concentration: 1 μM, replicates: in singlicate; n = 1

Smiles Input	Measured On	Units Label	%Inh
Cc1ccc(NC(=O)c2cccc(N3CCCCC3)c2)cc1-c1ccc(C(=O)NCC2CC2)cc1	IKK-beta	%	29
COc1ccc(C2=C(Nc3cccc(O)c3)C(=O)NC2=O)cc1	IKK-beta	%	44
Cc1ccc(NC(=O)c2ccnc(N3CCCCC3)c2)cc1-c1ccc(C(=O)NCC2CC2)cc1	IKK-beta	%	0
Cc1ccc(O)cc1Nc1ccnc2ccc(C(C)(C)C)cc12	IKK-beta	%	45
CS(=O)(=O)c1cccc(CNc2nc(Nc3ccc4c(c3)CCC(=O)N4)ncc2C(F)(F)F)c1	IKK-beta	%	0
COC(=O)Nc1nc2ccc(Oc3ccc(CC(=O)Nc4cc(C(F)(F)F)ccc4F)cc3)cc2[nH]1	IKK-beta	%	1

Hello, the source for this data is paper PMC5540273, in case you need it.
